# subject of test: Histamine H4 receptor (Rattus norvegicus)
# Sequence (Q91ZY1 whole entry): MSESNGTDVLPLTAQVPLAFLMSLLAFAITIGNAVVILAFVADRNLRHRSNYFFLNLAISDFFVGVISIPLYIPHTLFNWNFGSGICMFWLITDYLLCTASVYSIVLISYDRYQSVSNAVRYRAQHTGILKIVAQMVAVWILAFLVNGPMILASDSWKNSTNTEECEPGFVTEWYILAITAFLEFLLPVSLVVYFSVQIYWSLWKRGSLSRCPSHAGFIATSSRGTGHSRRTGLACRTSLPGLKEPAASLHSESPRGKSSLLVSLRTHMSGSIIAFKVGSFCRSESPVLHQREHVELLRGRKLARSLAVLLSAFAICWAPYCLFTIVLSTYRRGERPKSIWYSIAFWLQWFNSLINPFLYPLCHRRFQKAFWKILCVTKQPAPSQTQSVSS
reported property: pKi
Numbers only, as −log10 of the molar value.

Req: I am curious: what pKi value has been reported for CN1CCN(c2nc(NCc3ccoc3)c3cc(Cl)ccc3n2)CC1 ?
Resp: 7.61

----------
# subject of test: Histamine H4 receptor (Homo sapiens, UniProt Q9H3N8)
# Sequence (Q9H3N8 whole entry): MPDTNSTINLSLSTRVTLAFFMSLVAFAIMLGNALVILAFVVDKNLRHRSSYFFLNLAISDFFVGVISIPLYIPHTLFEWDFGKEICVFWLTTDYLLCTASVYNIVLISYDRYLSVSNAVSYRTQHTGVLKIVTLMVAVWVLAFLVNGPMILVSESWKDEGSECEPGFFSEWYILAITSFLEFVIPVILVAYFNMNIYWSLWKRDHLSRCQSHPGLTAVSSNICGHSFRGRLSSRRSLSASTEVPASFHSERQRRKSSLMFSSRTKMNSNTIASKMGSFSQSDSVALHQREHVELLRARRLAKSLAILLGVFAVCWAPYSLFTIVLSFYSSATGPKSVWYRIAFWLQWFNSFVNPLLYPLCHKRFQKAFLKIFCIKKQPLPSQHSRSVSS
Kindly supply the reported Ki values for the records listed here.
Answers are plain numbers, in µM.

Solved cases (3 shown):
compound: CN1CCN(c2nc(NCc3ccco3)c3cc(F)ccc3n2)CC1
measured result: 0.224
--
compound: CNc1nc(N2CCN3CCC[C@H]3C2)nc2ccc(Cl)cc12
measured result: 0.155
--
compound: CNc1nc(N2CCN3CCCC3C2)nc2ccc(Cl)cc12 (stereo unspecified)
measured result: 0.141

Req: I am curious: what Ki value has been reported for CN1CCN(c2nc(OCc3ccccc3)c3ccccc3n2)CC1 ?
Resp: 4.07

----------
# subject of test: Histamine H4 receptor (Homo sapiens, UniProt Q9H3N8)
# method: Inverse agonist activity at human histamine H4 receptor expressed in HEK293T cells by CRE-beta-galactosidase assay
reported property: pIC50
Numbers only, as −log10 of the molar value.

Req: I am curious: what pIC50 value has been reported for CN1CCN(c2nc(NCc3ccoc3)c3cc(Cl)ccc3n2)CC1 ?
Resp: 6.84

----------
# subject of test: Histamine H4 receptor (Homo sapiens, UniProt Q9H3N8)
reported property: Ki (nM)
One number for each entry, in nM.

Solved cases (2 shown):
mol smiles: CN1CCN(c2nc(NCCc3ccccc3)c3ccccc3n2)CC1
readout units: nM
Ki: 1480
//
mol smiles: CN1CCN(c2nc(NCc3ccoc3)c3cc(Cl)ccc3n2)CC1
readout units: nM
Ki: 26.9

Req: I am curious: what Ki value has been reported for CN1CCN(c2nc(Oc3ccccc3)c3ccccc3n2)CC1 ?
Resp: 2820

----------
# subject of test: Histamine H4 receptor (Homo sapiens, UniProt Q9H3N8)
# method: Displacement of [3H]histamine from human histamine H4 receptor expressed in HEK cells
# Type: cell-based, HEK293
Kindly supply the reported pKi values for the records listed here.
One number for each entry, as −log10 of the molar value.

Solved cases (2 shown):
mol smiles: CN1CCN(c2nc(NCc3ccccc3)c3cc(Cl)ccc3n2)CC1
reported property: pKi
measured result: 6.59
--
mol smiles: CN1CCN(c2nc(N(C)C)c3cc(Cl)ccc3n2)CC1
reported property: pKi
measured result: 6.21

Provide each entry's pKi from the list below.
1. CN1CCN(c2nc(NCc3cncs3)c3cc(Cl)ccc3n2)CC1
2. CN1CCN(c2nc(NCc3ccccc3)c3ccccc3n2)CC1
3. CN1CCN(c2nc3ccc(Cl)cc3nc2OCc2ccccc2)CC1

Resp:
1: 6.97; 2: 5.97; 3: 6.57

----------
# subject of test: Histamine H4 receptor (Homo sapiens)
pKi: −log10 of the molar value.
Lab note: anything with pKi at or over 6 counts as yes (1); the rest go in no (0).

compound: COc1ccc(CNc2nc(N3CCN(C)CC3)nc3ccc(Cl)cc23)cc1
subject of test: Histamine H4 receptor (Homo sapiens)
category: yes (1)
//
compound: CN1CCN(c2nc(NCCc3cccs3)c3cc(Cl)ccc3n2)CC1
subject of test: Histamine H4 receptor (Homo sapiens)
category: yes (1)
//
compound: CN1CCN(c2nc(O)c3cc(Cl)ccc3n2)CC1
subject of test: Histamine H4 receptor (Homo sapiens)
category: no (0)
//
compound: CN1CCN(c2nc(NCC3CCCCC3)c3cc(Cl)ccc3n2)CC1
subject of test: Histamine H4 receptor (Homo sapiens)
category: yes (1)
//
compound: CN1CCN(c2nc(NCc3ccco3)c3cc(Cl)ccc3n2)CC1
subject of test: Histamine H4 receptor (Homo sapiens)
category: yes (1)
//
compound: CNc1nc(N2CC[C@H](NC)C2)nc2ccc(Cl)cc12
subject of test: Histamine H4 receptor (Homo sapiens)
category: no (0)
//
compound: CNc1nc(N2CC(C)N(C)C(C)C2)nc2ccc(Cl)cc12 (centres undefined)
subject of test: Histamine H4 receptor (Homo sapiens)
category: no (0)
//
compound: CNc1nc(N2CCC3(CCN(C)CC3)CC2)nc2ccc(Cl)cc12
subject of test: Histamine H4 receptor (Homo sapiens)
category: no (0)

Req: Confirm if pKi reported for the compound CN1CCN(c2nc(NCCc3ccccc3)c3cc(Cl)ccc3n2)CC1 is 6 or above.
Resp: yes (1)

Req: Confirm if pKi reported for the compound Cc1ccsc1CNc1nc(N2CCN(C)CC2)nc2ccc(Cl)cc12 is 6 or above.
Resp: yes (1)

Req: Confirm if pKi reported for the compound CNc1nc(N2CCCC2CN2CCN(C)CC2)nc2ccc(Cl)cc12 (centres undefined) is 6 or above.
Resp: no (0)

Req: Confirm if pKi reported for the compound CNc1nc(N2CCC3(CCN(C)C3)C2)nc2ccc(Cl)cc12 (centres undefined) is 6 or above.
Resp: no (0)

Req: Confirm if pKi reported for the compound CNc1nc(N2CC[C@@H](N)C2)nc2ccc(Cl)cc12 is 6 or above.
Resp: no (0)
